Examples of molecules with documented normalized growth follow.
Assay: chemical genetic growth profiling, strain panel (AID 1159580);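 further: tested at 20 µM; growth read once vehicle control cultures reached saturation at 30 °C; 1 = growth at the plate median or of vehicle wells; lower values mean less growth of the strain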
Conditions: S. cerevisiae deletion strains, growth OD, locus YCL011C, strain gbp2, active compounds read low
Among all 5,500 compounds or so, about 2,000 (36%) were called active. Inconclusive results (about 18%) are left out. This is one part of the list.
TEST_READOUT: normalized growth

• NCCCS(=O)(=O)O = 1.02
• NCCc1cnc[nH]1 = 1.03
• O=C(O)CCCc1ccccc1 = 0.98
• C=CCc1ccc(O)c(OC)c1 = 1.01
• NCCS(=O)(=O)O = 0.965
• C=CCc1ccc(OC)cc1 = 0.988
• CCCCC/C=C/CCC(=O)N[C@H]1[C@H](Oc2c3cc4cc2Oc2ccc(cc2Cl)[C@@H](O[C@@H]2O[C@H](CO)[C@@H](O)[C@H](O)[C@H]2NC(C)=O)[C@@H]2NC(=O)[C@H](NC(=O)[C@@H]4NC(=O)[C@H]4NC(=O)C(Cc5ccc(c(Cl)c5)O3)NC(=O)[C@H](N)c3ccc(O)c(c3)Oc3cc(O)cc4c3)c3ccc(O)c(c3)-c3c(OC4O[C@H](CO)[C@@H](O)[C@H](O)[C@@H]4O)cc(O)cc3[C@@H](C(=O)O)NC2=O)O[C@H](CO)[C@@H](O)[C@@H]1O (some centres not stated) = 1.01
• CCC[C@H](N[C@@H](C)C(=O)N1[C@H](C(=O)O)C[C@@H]2CCCC[C@@H]21)C(=O)OCC = 1.01
• CC1(C)S[C@@H]2[C@H](NC(=O)[C@H](N)c3ccccc3)C(=O)N2[C@H]1C(=O)O = 0.95
• COC(=O)C1=COC(OC2OC(CO)C(O)C(O)C2O)C2C(C)CC(=O)C12 (configuration not stated) = 1.03
• COc1ccc(CN(CCN(C)C)c2ccccn2)cc1 = 1.03
• C=CCCCCCCCCCCCc1ccco1 = 0.803
• CCC(C)C(=O)O[C@@H]1C[C@@]2(C)[C@H](c3ccoc3)OC(=O)CC23OC2(C)OC34[C@H](OC(=O)C(C)C)[C@@]3(O)[C@@H](OC(=O)C5(C)OC5C)[C@@]5(C)C[C@]3(O)[C@@](C)([C@H]5CC(=O)OC)C14O2 (some centres not stated) = 1
• CC[C@@H]1C=C/C=C/C[C@H](C)[C@@H](O)[C@](C)(O)C(=O)[C@H](C)[C@@H](O)[C@H](C)C(=O)[C@H](C)[C@@H](O)[C@H](C)/C=C/C(=O)O[C@H]2[C@@H](C)[C@@H](CC1)O[C@@]1(CC[C@@H](C)[C@@H](C[C@H](C)O)O1)[C@@H]2C = 1.02
• CC[C@@]1(O)C[C@H](O)c2c(cc3c(c2O)C(=O)c2c(O)ccc(O)c2C3=O)[C@H]1C(=O)OC = 0.874
• O=C(O)CCCc1ccc(N(CCCl)CCCl)cc1 = 0.959
• C#CCCCCCCCCCCCc1ccco1 = 0.983

====

Assay: chemical genetic growth profiling, strain panel (AID 1159580);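 further: tested at 20 µM; growth read once vehicle control cultures reached saturation at 30 °C; 1 = growth at the plate median or of vehicle wells; lower values mean less growth of the strain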
Settings: S. cerevisiae deletion strains, growth OD, locus YKR001C, strain vps1
In all, about 5,500 compounds went through this assay and about 2,000 (36%) were called active. Roughly 18% stayed inconclusive and do not appear here. Cut-off read from the data, not from the text of the source: active = normalized growth mostly below about 0.91 (no sharp cut-off); inconclusive = no clear call, values can overlap the other calls; inactive = mostly above about 0.92. The list shows a part of the results.
Outcome codes: yes (1) (active), no (0) (inactive)

• Oc1cc(O)c2c(c1)O[C@H](c1cc(O)c(O)c(O)c1)[C@H](O)C2 = no (0)
• c1ccc2c(c1)sc1ccccc12 = yes (1)
• CCCCC[C@H]1C(=O)O[C@H](C)[C@H](NC(=O)c2cccc(NC=O)c2O)C(=O)O[C@@H](C)[C@@H]1OC(=O)CC(C)C = no (0)
• C#CCN(C)Cc1ccccc1 = no (0)
• O=C(OCC(O)CO)c1ccccc1Nc1ccnc2cc(Cl)ccc12 (configuration not stated) = no (0)
• CCCCCCC(C)OC(=O)COc1cc(Cl)c(Cl)cc1Cl (configuration not stated) = no (0)
• CCCCCCCCC(=O)NCc1ccc(O)c(OC)c1 = no (0)
• Oc1cc(O)c2c(c1)OC(c1cc(O)c(O)c(O)c1)C(O)C2c1c(O)cc(O)c2c1OC(c1cc(O)c(O)c(O)c1)C(O)C2c1c(O)cc(O)c2c1OC(c1cc(O)c(O)c(O)c1)C(O)C2 (configuration not stated) = no (0)
• Oc1cc(O)c2c(c1)O[C@H](c1ccc(O)c(O)c1)[C@H](O)C2 = no (0)
• Oc1ccc2c(c1)O[C@H](c1ccc(O)c(O)c1)[C@@H](O)C2 = no (0)
• CCN(CC)Cc1ccc(Nc2ccnc3cc(Cl)ccc23)cc1O = no (0)
• Oc1cc(O)c2c(c1)O[C@H](c1ccc(O)c(O)c1)[C@@H](O)C2 = no (0)

====

Examples of compounds with documented normalized growth follow.
Experiment: chemical genetic growth profiling, strain panel (AID 1159580);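 further: tested at 20 µM; growth read once vehicle control cultures reached saturation at 30 °C; 1 = growth at the plate median or of vehicle wells; lower values mean less growth of the strain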
Conditions: S. cerevisiae deletion strains, growth OD, locus YDL035C, strain GPR1, active compounds read low
About 2,000 (36%) of roughly 5,500 compounds were called active. Not shown: some 18% with an inconclusive outcome. The list shows a part of the results.
TEST_READOUT: normalized growth

- COc1cc([C@@H]2c3cc4c(cc3C(OC3O[C@@H]5COC(C)O[C@H]5[C@H](O)[C@H]3O)C3COC(=O)[C@@H]32)OCO4)cc(OC)c1O (some centres not stated): 0.996
- C[C@@H]1O[C@@H](O[C@H]2[C@H](Oc3cc(O)c4c(=O)cc(-c5ccc(O)cc5)oc4c3)O[C@H](CO)[C@@H](O)[C@@H]2O)[C@H](O)[C@H](O)[C@H]1O: 1
- CCC(C)C(=O)O[C@@H]1C[C@@]2(C)[C@H](c3ccoc3)OC(=O)CC23OC2(C)OC34[C@H](OC(=O)C(C)C)[C@@]3(O)[C@@H](OC(=O)C5(C)OC5C)[C@@]5(C)C[C@]3(O)[C@@](C)([C@H]5CC(=O)OC)C14O2 (some centres not stated): 0.974
- CCCCNC(=O)NS(=O)(=O)c1ccc(C)cc1: 0.989
- CCC(C)C(=O)O[C@@H]1C[C@@]2(C)[C@H](c3ccoc3)OC(=O)CC23OC2(C)O[C@]14[C@]1(C)[C@@H](CC(=O)OC)C5(C)CC1(O)[C@](O)(C5OC(=O)C1(C)OC1C)[C@@H](OC(C)=O)[C@]34O2 (some centres not stated): 0.963
- Oc1cc(O)c2c(c1)OC(c1cc(O)c(O)c(O)c1)C(O)C2c1c(O)cc(O)c2c1OC(c1cc(O)c(O)c(O)c1)C(O)C2c1c(O)cc(O)c2c1OC(c1cc(O)c(O)c(O)c1)C(O)C2 (configuration not stated): 0.889
- CN(C)CCN(Cc1cccs1)c1ccccn1: 1
- CCC(C)C(=O)OC1CC2(C)C(c3ccoc3)OC(=O)CC23OC2(C)OC34C(OC(=O)C(C)C)C3(O)C(OC(=O)C5(C)OC5C)C5(C)CC3(O)C(C)(C5C(=O)OC)C14O2 (configuration not stated): 0.993
- Oc1ccc2c(c1)O[C@H](c1ccc(O)c(O)c1)[C@@H](O)C2: 1.07
- COC(=O)C[C@H]1C2(C)CC34OC5(C)O[C@@]6([C@H](OC)C(OC(=O)C(C)C)[C@]7(C)C(/C(=C(/OC)C(C)C)C(=O)O[C@H]7c7ccoc7)[C@@]6(O5)[C@H](OC)[C@@]3(OC)C2OC(C)=O)[C@]14C (some centres not stated): 1.03
- Cc1ccc(S(=O)(=O)NC(=O)NN2CCCCCC2)cc1: 0.997
- COC(=O)C[C@H]1C2(C)CC34OC5(C)O[C@@]6([C@H](OC(C)=O)C(OC(C)=O)[C@]7(C)C(/C(=C(/O)C(C)C)C(=O)O[C@H]7c7ccoc7)[C@@]6(O5)[C@H](OC(C)=O)[C@@]3(O)C2OC(=O)C(C)C)[C@]14C (some centres not stated): 0.976

====

Assay: chemical genetic growth profiling, strain panel (AID 1159580);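 further: tested at 20 µM; growth read once vehicle control cultures reached saturation at 30 °C; 1 = growth at the plate median or of vehicle wells; lower values mean less growth of the strain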
Conditions: S. cerevisiae deletion strains, growth OD, locus YPL055C, strain LGE1, active compounds read low
About 2,000 (36%) of roughly 5,500 compounds were called active. Roughly 18% stayed inconclusive and do not appear here. The list shows a part of the results.
Returns: string. Value is Fulfilled if measured normalized growth is below 1, and Not fulfilled if it is greater than or equal to it.

* c1ccc(CCCN2CCN(CCOC(c3ccccc3)c3ccccc3)CC2)cc1 | Fulfilled
* COC(=O)c1ccc(Cl)cc1NS(=O)(=O)c1ccc(OC)c(OC)c1 | Fulfilled
* O=[N+]([O-])c1ccc(N2CCCCC2)nc1N1CCCCC1 | Fulfilled
* N#CCCN(CC1CCCO1)C(=S)Nc1cc(C(F)(F)F)cc(C(F)(F)F)c1 (configuration not stated) | Fulfilled
* COc1ccc(-c2coc3cc(OC)ccc3c2=O)cc1 | Fulfilled
* O=C(OCC(O)CO)c1ccccc1Nc1ccnc2cc(Cl)ccc12 (configuration not stated) | Fulfilled
* CN(C)CCN(Cc1cccs1)c1ccccn1 | Fulfilled
* CN1CC(=O)N=C1N | Not fulfilled
* Cc1onc(-c2c(Cl)cccc2Cl)c1-c1nc(-c2ccc3c(c2)OCCO3)cs1 | Not fulfilled
* CCCCCCCCCCCCN1CNC(=S)NC1 | Fulfilled
* COc1ccc(OC)c(C(O)CNC(=O)CN)c1 (configuration not stated) | Fulfilled
* CCCCCCCCCCC[C@@H](C[C@H]1OC(=O)[C@H]1CCCCCC)OC(=O)[C@@H](CC(C)C)NC=O | Not fulfilled
* NC(=O)c1ccc[n+]([C@@H]2O[C@H](COP(=O)([O-])OP(=O)(O)OC[C@H]3O[C@@H](n4cnc5c(N)ncnc54)[C@H](OP(=O)(O)O)[C@@H]3O)[C@@H](O)[C@H]2O)c1 | Not fulfilled
* Clc1ccc(C(OCCN2CCCCC2)c2ccccc2)cc1 (configuration not stated) | Fulfilled
* COc1c(Br)cc([N+](=O)[O-])c(OC)c1C(N)=O | Fulfilled
* CCCOc1ccccc1/C=N\NC(=S)Nc1cccc(F)c1 | Fulfilled
* O=C(CC1NCCN(Cc2ccccc2)C1=O)Nc1ccc(Cl)cc1 (configuration not stated) | Fulfilled
* OC1(c2ccc(F)cc2)Cc2ccccc2C2=NCCN21 (configuration not stated) | Fulfilled
* O=c1c(-c2ccc(O)cc2)coc2cc(O)ccc12 | Fulfilled
* CC[C@@]1(O)C[C@H](O)c2c(cc3c(c2O)C(=O)c2c(O)ccc(O)c2C3=O)[C@H]1C(=O)OC | Fulfilled
* CN(C)CCN(Cc1ccccc1)c1ccccn1 | Not fulfilled
* CN1CC(CO)=C[C@@H]2c3cccc4[nH]cc(c34)C[C@H]21 | Fulfilled

# credit: PubChem BioAssay AID1159580
